Experiment: Metabolic stability in human liver microsomes assessed as intrinsic clearance preincubated for 10 mins followed by NADPH addition and measured after 60 mins by LC-MS/MS analysis
Format: ADME, Microsome
Conditions: time 70 min, read-out: CLH
experimental_endpoint: log10(CLint scaled) (log10 of the value in mL/min/kg)
Note the log scale: values are log10 of CLint scaled expressed in mL/min/kg.

Q: Specify measured log10(CLint scaled) for Fc1ccc([C@]2(CCNCc3scc4c3CCCC4)CCO[C@]3(CCOC3)C2)nc1 .
Result: 2.53

Q: Specify measured log10(CLint scaled) for Clc1cccc(CNCC[C@@]2(c3ccccn3)CCOC3(CCOC3)C2)c1 (stereo partly specified) .
Result: 1.34

Q: Specify measured log10(CLint scaled) for Fc1ccc([C@]2(CCNCc3scc4c3COC4)CCOC3(CCOC3)C2)cc1 (stereo partly specified) .
Result: 2.28

Q: Specify measured log10(CLint scaled) for c1ccc([C@]2(CCNCc3scc4c3COC4)CCOC3(CCCC3)C2)nc1 .
Result: 2.36

Q: Specify measured log10(CLint scaled) for FC1(F)CCc2csc(CNCC[C@@]3(c4ccccn4)CCOC4(CCCC4)C3)c2C1 .
Result: 3.21

Q: Specify measured log10(CLint scaled) for Fc1ccc([C@]2(CCNCc3scc4c3CCC4)CCO[C@]3(CCOC3)C2)nc1 .
Result: 2.03

Q: Specify measured log10(CLint scaled) for Fc1ccc([C@]2(CCNCc3scc4c3CCC4)CCOC3(CCOC3)C2)cc1 (stereo partly specified) .
Result: 2.20

Q: Specify measured log10(CLint scaled) for COc1ccsc1CNCC[C@@]1(c2ccccn2)CCO[C@]2(CCOC2)C1 .
Result: 0.97

Q: Specify measured log10(CLint scaled) for Cc1cccc(CNCC[C@@]2(c3ccccn3)CCOC3(CCOC3)C2)c1 (stereo partly specified) .
Result: 0.94

Q: Specify measured log10(CLint scaled) for c1ccc([C@]2(CCNCc3scc4c3CCC4)CCO[C@]3(CCOC3)C2)nc1 .
Result: 1.69

###

Please provide measured pEC50 for the entries that follow.
Molecular target: Mu-type opioid receptor (Homo sapiens, UniProt P35372)
Sequence (P35372 whole entry): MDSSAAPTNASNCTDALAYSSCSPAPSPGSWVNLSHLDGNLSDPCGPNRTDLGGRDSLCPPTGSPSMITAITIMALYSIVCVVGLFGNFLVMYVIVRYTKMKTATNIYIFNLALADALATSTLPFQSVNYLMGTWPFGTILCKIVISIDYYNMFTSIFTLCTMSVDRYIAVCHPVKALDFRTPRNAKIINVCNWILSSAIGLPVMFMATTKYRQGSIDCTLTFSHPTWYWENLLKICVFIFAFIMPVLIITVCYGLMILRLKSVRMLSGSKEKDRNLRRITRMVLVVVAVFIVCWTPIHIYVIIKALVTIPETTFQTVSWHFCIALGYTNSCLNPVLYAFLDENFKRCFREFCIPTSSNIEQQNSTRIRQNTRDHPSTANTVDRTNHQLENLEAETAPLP
Assay: Agonist activity at mu opioid receptor (unknown origin) assessed as beta arrestin-2 recruitment incubated for 3 days by PathHunter assay
Format: functional
Reminder that pEC50 means the negative base-10 logarithm of the concentration expressed in mol/L.

Q: Specify measured pEC50 for FC1(F)CCc2csc(CNCC[C@@]3(c4ccccn4)CCOC4(CCCC4)C3)c2C1 .
Result: 7.96

Q: Specify measured pEC50 for FC1(F)Cc2csc(CNCC[C@@]3(c4ccccn4)CCOC4(CCCC4)C3)c2C1 .
Result: 8.00

Q: Specify measured pEC50 for Fc1ccc([C@]2(CCNCc3scc4c3CCC4)CCOC3(CCOCC3)C2)nc1 .
Result: 6.14

Q: Specify measured pEC50 for FC1(F)CCc2c(csc2CNCC[C@@]2(c3ccccn3)CCOC3(CCOC3)C2)C1 (stereo not given in full) .
Result: 7.16

###

Please provide measured Emax for the entries that follow.
Molecular target: UniProt:P35372
Assay: Agonist activity at mu opioid receptor (unknown origin) assessed as maximal cAMP level incubated for 40 mins by spectrophotometry relative to DAMGO
Assay type: functional
Conditions: filed as agonist
Field format: number, assumed %, no unit text.

Q: Specify measured Emax for Fc1ccc([C@]2(CCNCc3scc4c3CCC4)CCO[C@]3(CCOC3)C2)nc1 .
Result: 95.1

Q: Specify measured Emax for FC1(F)Cc2csc(CNCC[C@@]3(c4ccccn4)CCOC4(CCCC4)C3)c2C1 .
Result: 96.9

Q: Specify measured Emax for Clc1cccc(CNCC[C@@]2(c3ccccn3)CCOC3(CCOC3)C2)c1 (stereo partly drawn) .
Result: 86.4

Q: Specify measured Emax for c1ccc([C@]2(CCNCc3scc4c3COC4)CCOC3(CCCC3)C2)nc1 .
Result: 90.5

Q: Specify measured Emax for COc1ccsc1CNCC[C@@]1(c2ccccn2)CCO[C@@]2(CCOC2)C1 .
Result: 66.3

Q: Specify measured Emax for c1ccc([C@]2(CCNCc3ccc4ccccc4c3)CCOC3(CCOC3)C2)nc1 (stereo partly drawn) .
Result: 124

Q: Specify measured Emax for Clc1ccc(CNCC[C@@]2(c3ccccn3)CCOC3(CCOC3)C2)s1 (stereo partly drawn) .
Result: 93.3

Q: Specify measured Emax for Fc1ccc([C@]2(CCNCc3scc4c3CCC4)CCOC3(CCOCC3)C2)nc1 .
Result: 125

Q: Specify measured Emax for Cc1cccc(CNCC[C@@]2(c3ccccn3)CCOC3(CCOC3)C2)c1 (stereo partly drawn) .
Result: 88.9

Q: Specify measured Emax for FC1(F)CCc2csc(CNCC[C@@]3(c4ccccn4)CCOC4(CCCC4)C3)c2C1 .
Result: 92.5

Q: Specify measured Emax for COc1ccsc1CNCC[C@@]1(c2ccccn2)CCOC2(CCCC2)C1 .
Result: 92.5

Q: Specify measured Emax for C[C@@H](Cc1ccsc1)NC(=O)NC[C@H](Cc1ccc(O)cc1)N(C)C .
Result: 89.2

Q: Specify measured Emax for Fc1ccc([C@]2(CCNCc3cccc(Cl)c3)CCO[C@]3(CCOC3)C2)nc1 .
Result: 91.4

###

Please provide measured Cmax for the entries that follow.
Experiment: Cmax in Sprague-Dawley rat at 2 mg/kg, iv by LC-MS/MS analysis
Assay type: ADME, organism-based
Parameters: route intravenous, dose 2 mg/kg
Conditions: in vivo
Field format: number, assumed ng/mL, no unit text.

Q: Specify measured Cmax for COc1ccsc1CNCC[C@@]1(c2ccccn2)CCOC2(CCCC2)C1 .
Result: 249

Q: Specify measured Cmax for Fc1ccc([C@]2(CCNCc3cccc(Cl)c3)CCO[C@]3(CCOC3)C2)nc1 .
Result: 252

###

Assay: Drug concentration in Sprague-Dawley rat brain at […], iv measured after 5 mins by LC-MS/MS analysis
Format: ADME, organism-based
Details: dose 0.25 mg/kg, read-out: Drug uptake
experimental_endpoint: concentration at 5 min (ng/g)
Field format: number, assumed ng/g, no unit text.

Q: Specify measured concentration at 5 min for COc1ccsc1CNCC[C@@]1(c2ccccn2)CCOC2(CCCC2)C1 [OLICERIDINE] .
Result: 64.8

Q: Specify measured concentration at 5 min for Fc1ccc([C@]2(CCNCc3cccc(Cl)c3)CCO[C@]3(CCOC3)C2)nc1 .
Result: 172

###

Molecular target: Mu-type opioid receptor (Homo sapiens, UniProt P35372)
Assay: Agonist activity at mu opioid receptor (unknown origin) assessed as increase in cAMP level incubated for 40 mins by spectrophotometry
Type: functional
experimental_endpoint: EC50

Q: Print Mu-type opioid receptor (Homo sapiens, UniProt P35372) EC50 for c1ccc([C@]2(CCNCC3CCCCC3)CCOC3(CCOC3)C2)nc1 (stereo not given in full) .
Result: 61.6 nM

Q: Print Mu-type opioid receptor (Homo sapiens, UniProt P35372) EC50 for Cc1cc(C)cc(CNCC[C@@]2(c3ccccn3)CCOC3(CCOC3)C2)c1 (stereo not given in full) .
Result: 11.6 nM

Q: Print Mu-type opioid receptor (Homo sapiens, UniProt P35372) EC50 for Fc1ccc(CNCC[C@@]2(c3ccccn3)CCOC3(CCOC3)C2)cc1Cl (stereo not given in full) .
Result: 26.5 nM

Q: Print Mu-type opioid receptor (Homo sapiens, UniProt P35372) EC50 for c1ccc([C@]2(CCNCc3scc4c3COC4)CCOC3(CCCC3)C2)nc1 .
Result: 2 nM

Q: Print Mu-type opioid receptor (Homo sapiens, UniProt P35372) EC50 for Clc1ccc(CNCC[C@@]2(c3ccccn3)CCOC3(CCOC3)C2)s1 (stereo not given in full) .
Result: 22.3 nM

###

Assay: Plasma protein binding in dog plasma assessed as unbound fraction
Format: ADME, cell-free, Canis lupus familiaris
Please provide measured fraction unbound for the entries that follow.
Please give the numeric answer without any surrounding text.

Q: Specify measured fraction unbound for c1ccc([C@]2(CCNCc3scc4c3CCC4)CCO[C@]3(CCOC3)C2)nc1 .
Result: 0.16

Q: Specify measured fraction unbound for Fc1ccc([C@]2(CCNCc3cccc(Cl)c3)CCO[C@]3(CCOC3)C2)nc1 .
Result: 0.17

Q: Specify measured fraction unbound for COc1ccsc1CNCC[C@@]1(c2ccccn2)CCOC2(CCCC2)C1 .
Result: 0.023

###

Target: Mu-type opioid receptor (Homo sapiens)
Assay: Agonist activity at mu opioid receptor (unknown origin) assessed as increase in cAMP level incubated for 40 mins by spectrophotometry
Format: functional
pEC50: −log10 of the molar value.
Each entry gets not satisfied if its pEC50 stays under 9, and satisfied if its pEC50 is 9 or above.

Q: Hi team, for Cc1ccsc1CNCC[C@@]1(c2ccc(F)cc2)CCOC2(CCOC2)C1 (stereo not given in full) , is the recorded pEC50 at or above 9?
Result: not satisfied

Q: Hi team, for Fc1ccc([C@]2(CCNCc3scc4c3COC4)CCOC3(CCOC3)C2)cc1 (stereo not given in full) , is the recorded pEC50 at or above 9?
Result: not satisfied

Q: Hi team, for c1ccc([C@]2(CCNCc3scc4c3CCC4)CCO[C@]3(CCOC3)C2)nc1 , is the recorded pEC50 at or above 9?
Result: satisfied

Q: Hi team, for Clc1cccc(CNCC[C@@]2(c3ccccn3)CCOC3(CCOC3)C2)c1 (stereo not given in full) , is the recorded pEC50 at or above 9?
Result: not satisfied

Q: Hi team, for Fc1ccc([C@]2(CCNCc3scc4c3CCC4)CCOC3(CCOCC3)C2)nc1 , is the recorded pEC50 at or above 9?
Result: not satisfied

Q: Hi team, for Fc1ccc([C@]2(CCNCc3cccc(Cl)c3)CCO[C@]3(CCOC3)C2)nc1 , is the recorded pEC50 at or above 9?
Result: satisfied

Q: Hi team, for Cc1cccc(CNCC[C@@]2(c3ccccn3)CCOC3(CCOC3)C2)c1 (stereo not given in full) , is the recorded pEC50 at or above 9?
Result: not satisfied

Q: Hi team, for FC1(F)CCc2c(csc2CNCC[C@@]2(c3ccccn3)CCOC3(CCOC3)C2)C1 (stereo not given in full) , is the recorded pEC50 at or above 9?
Result: satisfied

Q: Hi team, for COc1ccsc1CNCC[C@@]1(c2ccccn2)CCO[C@]2(CCOC2)C1 , is the recorded pEC50 at or above 9?
Result: not satisfied

Reference for the values: ChEMBL document CHEMBL5042488
